Measured values drawn from patent US6462171B1 for this set.

Biological target: Aβ1-42 (Homo sapiens)
Sequence (P05067 18-42): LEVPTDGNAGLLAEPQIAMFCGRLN
Test: Thioflavine T fluorometric assay of amyloid formation by Aβ1-42
Assay type: biochemical
Conditions: amyloid remaining; 30 μg Aβ with 10-fold molar excess of peptide, 2 days, room temperature, 0.1M tris pH 7.6; Aβ alone = 100
Field: label. Allowed values: Fulfilled (% of amyloid Aβ1-42 < 90%) or Not fulfilled (% of amyloid Aβ1-42 >= 90%).

| substance | assayed-system | group |
| --- | --- | --- |
| iAβ2: seven amino acid residue shorter derivative of iAβ (LPFFPVD) | Aβ1-42 (Homo sapiens) | Fulfilled |
| CP1: unrelated control peptide of 12 amino acids (VHVSEEGTEPA) [reference compound] | Aβ1-42 (Homo sapiens) | Not fulfilled |
| iAβ3: shorter derivative of iAβ; valine inserted into the sequence of SEQ ID NO:18 (LPFFVD) | Aβ1-42 (Homo sapiens) | Fulfilled |
| CP3: control peptide (PADVPLAPRAVD) [reference compound] | Aβ1-42 (Homo sapiens) | Not fulfilled |
| CP2: control peptide (GYLTVAAVFRG) [reference compound] | Aβ1-42 (Homo sapiens) | Not fulfilled |
| iAβ: 11 amino acid peptide partially homologous to Aβ residues 17-21, with proline residues and charged ends (RDLPFFPVPID) | Aβ1-42 (Homo sapiens) | Fulfilled |
| iAβ1: shorter derivative of iAβ (RDLPFFPVD) | Aβ1-42 (Homo sapiens) | Fulfilled |
